The entries below come with measured pKd values attached.
TARGET SYSTEM: recombinant mouse CTLA-4 protein (mouse) (UniProt P09793)
Sequence (P09793 36-161 limits assumed): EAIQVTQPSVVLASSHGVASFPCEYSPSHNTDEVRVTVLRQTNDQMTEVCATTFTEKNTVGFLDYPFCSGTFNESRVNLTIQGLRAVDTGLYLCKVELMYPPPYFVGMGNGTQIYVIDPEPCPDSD
ASSAY OVERVIEW: SPR (Pioneer FE, OneStep), 25 C; 3xFLAG scFv captured by anti-FLAG M2, mouse CTLA-4 as analyte
In textbook form, pKd equals minus log to base ten of the concentration in mol/L.

78-24D9 scFv (scFv, part only; not given: Linker, domain order, 3xFLAG tag, V domains shown, not shown: another chain or arm of the molecule; small tags and cut ends) VH: EVQLVESGGGLVQPGGSLRLSCAASGFTFSSSSMHWVRQAPGKGLEWVSGISGWGGSTSYADSVKGRFTISRDNSKNTLYLQMNSLRAEDTAVYYCARYLMSFNLTRTGWFDVWGQGTLVTVSS VL: DIQMTQSPSSLSASVGDRVTITCQASQDIANYLNWYQQKPGKAPKLLIYDASNLETGVPSRFSGSGSGTDFTFTISSLQPEDIATYYCQQSDAWPWTFGQGTKVEIK :: 8.95
78-24D8 scFv (scFv, part only; not given: Linker, domain order, 3xFLAG tag, V domains shown, not shown: another chain or arm of the molecule; small tags and cut ends) VH: EVQLVKSGGGLVQPGGSLRLSCAASGFTFSSYSMHWVRQAPGKGLEWVSGISGSGRSTSYADSVKGRFTISRDNSKNTLYLQMNSLRAEDTAVYYCARDLMAFNLTRTGGFDVWGQGTLVTVSS VL: DIQMTQSPSSLSASVGDRVTITCQASQDISNYLNWYQQKPGKAPKLLIYDASNLETGVPSRFSGSGSGTDFTFTINSLQPEDIATYYCQQGDAWPWTFGQGTKVEIK :: 11.00
78-28 scFv (scFv, part only; not given: Linker, domain order, 3xFLAG tag, V domains shown, not shown: another chain or arm of the molecule; small tags and cut ends) VH: EVQLVESGGGLVQPGGSLRLSCAASGFTFSSYYMHWVRQAPGKGLEWVSAIYGNGGYTYYADSVKGRFTISRDNSKNTLYLQMNSLRAEDTAVYYCARGRPARHQVGFDVWGQGTLVTVSS VL: DIQMTQSPSSLSASVGDRVTITCQASLDISNYLNWYQQKPGKAPKLLIYDASNLETGVPSRFSGSGSGTDFTFTISSLQPEDIATYYCQQLYTVPLTFGQGTKVEIK :: 8.59

# evaluate next
Looking up 78-36 scFv (scFv, part only; not given: Linker, domain order, 3xFLAG tag, V domains shown, not shown: another chain or arm of the molecule; small tags and cut ends) VH: MEVQLVESGGGLVQPGGSLRLSCVASGFTFSSYYMHWVRQAPGKGLEWVSAISGSGGSTYYADSVKGRFTISRDNSKNTLYLQMNSLRAEDTAVYYCARGRQVGKSSFGEAFDVWGQGTLVTVSS VL: DIQMTQSPSSLSASVGDRVTITCQASQDISNYLNWYQQKPGKAPKLLIYDASNLETGVPSRFSGSGSGTDFTFTISSLQPEDIATYYCQQFTSFPYTFGQGTKVEIK , I see its pKd listed as 9.01
